TESTED ON: UniProtKB A0MJA7
MEASUREMENT PROTOCOL: Fluorescence NPC1L1 binding assay, HEK-293 cells, BODIPY-labeled compound 1
CONDITION CONTEXT: Table 3, Rabbit; read-out: Ki Rabbit NPC1L1
Could you please mark met for values of Ki below 2 µM and not met for values at or above it?

TEST SMILES: O=C1[C@H](CC[C@H](O)c2ccc(F)cc2)[C@@H](c2ccc(O[C@@H]3O[C@H](CO)[C@@H](O[C@@H]4O[C@H](CO)[C@@H](O)[C@H](O)[C@H]4O)[C@H](O)[C@H]3O)cc2)N1c1ccc(F)cc1
CAT: met

TEST SMILES: O=C1[C@H](CC[C@H](O)c2ccc(F)cc2)[C@@H](c2ccc(O)cc2)N1c1ccc(I)cc1
CAT: not met

TEST SMILES: O=C(O)[C@H]1O[C@@H](Oc2ccc([C@@H]3[C@@H](CC[C@H](O)c4ccc(F)cc4)C(=O)N3c3ccc(F)cc3)cc2)[C@H](O)[C@@H](O)[C@@H]1O
CAT: met

TEST SMILES: O=C(CS[C@H]1C(=O)N(c2ccc(F)cc2)[C@@H]1c1ccc(O)cc1)c1ccc(F)cc1
CAT: not met

TEST SMILES: O=C1[C@H](CC[C@H](O)c2ccc(F)cc2)[C@@H](c2ccc(O)cc2)N1c1ccc(F)cc1
CAT: not met

* * *

TESTED ON: hamster NPC1L1 (Mesocricetus auratus, UniProt A0MJA8)
MEASUREMENT PROTOCOL: Fluorescence NPC1L1 binding assay, HEK-293 cells, BODIPY-labeled compound 1
CONDITION CONTEXT: Hamster NPC1L1, competition with compound 1; read-out: Ki
Entries and their Ki values follow.

COMPOUND: O=C1[C@H](CC[C@H](O)c2ccc(F)cc2)[C@@H](c2ccc(O)cc2)N1c1ccc(F)cc1 [compound 3, ezetimibe]
Ki, nM: 1530
--
COMPOUND: O=C(O)[C@H]1O[C@@H](Oc2ccc([C@@H]3[C@@H](CC[C@H](O)c4ccc(F)cc4)C(=O)N3c3ccc(F)cc3)cc2)[C@H](O)[C@@H](O)[C@@H]1O [compound 4, glucuronidated ezetimibe]
Ki, nM: 370

* * *

TESTED ON: hamster NPC1L1 (Mesocricetus auratus)
MEASUREMENT PROTOCOL: Fluorescence NPC1L1 binding assay, HEK-293 cells, BODIPY-labeled compound 1
CONDITION CONTEXT: Table 3, Hamster; read-out: Ki Hamster NPC1L1
pKi: −log10 of the molar value.

COMPOUND: O=C1[C@H](CC[C@H](O)c2ccc(F)cc2)[C@@H](c2ccc(O[C@@H]3O[C@H](CO)[C@@H](O[C@@H]4O[C@H](CO)[C@@H](O)[C@H](O)[C@H]4O)[C@H](O)[C@H]3O)cc2)N1c1ccc(F)cc1 [compound 5]
pKi: 5.92
--
COMPOUND: O=C(O)[C@H]1O[C@@H](Oc2ccc([C@@H]3[C@@H](CC[C@H](O)c4ccc(F)cc4)C(=O)N3c3ccc(F)cc3)cc2)[C@H](O)[C@@H](O)[C@@H]1O [compound 4, glucuronidated ezetimibe]
pKi: 6.43

* * *

TESTED ON: hamster NPC1L1 (Mesocricetus auratus, UniProt A0MJA8)
MEASUREMENT PROTOCOL: Fluorescence NPC1L1 binding assay, HEK-293 cells, BODIPY-labeled compound 1
CONDITION CONTEXT: Table 3, Hamster; read-out: Ki Hamster NPC1L1
pKi: −log10 of the molar value.
// reported pKi for each item listed

COMPOUND: O=C1[C@H](CC[C@H](O)c2ccc(F)cc2)[C@@H](c2ccc(O)cc2)N1c1ccc(F)cc1 [compound 3, ezetimibe]
pKi: 5.82
//
COMPOUND: O=C(CS[C@H]1C(=O)N(c2ccc(F)cc2)[C@@H]1c1ccc(O)cc1)c1ccc(F)cc1 [compound 7]
pKi: 5.37
//
COMPOUND: O=C1[C@H](CC[C@H](O)c2ccc(F)cc2)[C@@H](c2ccc(O)cc2)N1c1ccc(I)cc1 [compound 6]
pKi: 5.63
